System: HEK293
method: Cytotoxic Profiling of Annotated Libraries Using Quantitative High-Throughput Screening (AID 1296008); further: potency means the concentration at half of the fitted maximal effect; nearly all actives have a fitted effect of over 60% in size
settings: Five cell lines viability, CellTiter-Glo ATP luminescence, 48-72 h
Description: Cell-based phenotypic screening is a commonly used approach to discover biological pathways, novel drug targets, chemical probes and high-quality hit-to-lead molecules. […] A pintool (Kalypsys) was used to transfer 23 nL of compound solution to the 1536-well assay plates. […] Plates were left at room temperature for 10 min before imaging the ATP-coupled luminescence using a ViewLux microplate imager (PerkinElmer, Waltham, MA).
Records with an inconclusive call do not appear. Activity calls are given as the source filed them. The call rests on the fitted dose curve; in most records, active means well fitted inhibition curve with a large enough effect; inconclusive means small, poorly fitted or top-dose-only effect; inactive means flat fitted curve, though single readings scatter.
measurement.kind: Potency

Memo: O=C(Nc1ccc(C(O)(C(F)(F)F)C(F)(F)F)cc1)c1ccc(C(F)(F)F)cc1 , reported Potency: 10.3 µM (active)

Form field Potency, entry C[C@@H]1COCCN1c1cc(=O)n2c(n1)N(Cc1cncc(Cl)c1)[C@H](C(F)(F)F)CC2 : 4.17 µM (active)

// Potency value for Cc1ccccc1C(C(=O)NC1CCCCC1)N(C(=O)Cn1cnc2ccccc21)c1cccc(F)c1 (stereo unspecified) : 16.4 µM (active)

# Potency (compound: C=C[C@@]1(C)C=C2C(=O)C(O)=C3[C@](C)(C(=O)O)CC[C@@H]4C[C@]34[C@]2(O)C(=O)C1 ) is 1.8 µM (active)

What the record says about C=C(NC(=O)C(=C)NC(=O)c1csc(C2=NC3c4csc(n4)C4NC(=O)c5csc(n5)C(C(C)(O)C(C)O)NC(=O)C5CSC(=N5)/C(=C/C)NC(=O)C(C(C)O)NC(=O)c5csc(n5)C3(CC2)NC(=O)C(C)NC(=O)C(=C)NC(=O)C(C)NC(=O)C(C(C)CC)NC2C=Cc3c(C(C)O)cc(nc3C2O)C(=O)OC4C)n1)C(N)=O (stereo unspecified) : Potency is 1.16 µM (active)

Record summary for C[C@H](Oc1cc(-c2cnn(C3CCNCC3)c2)cnc1N)c1c(Cl)ccc(F)c1Cl : reported Potency = 9.2 µM (active)

The origin of these recorded values is PubChem BioAssay (NCATS).
